# Assay Text: clinical
# Condition: human, in vivo, 100 mg
# Excerpt: The method used in publication relies on fractional order derivatives with a multi-compartmental model using Laplace transform, which is not a common operation a lab technician usually able to perform. […] The resulting simplified equation for time changes of the concentration in the blood plasma (=the target compartment in the terminology of the recent invention), designated as c2(t) in [6], was expressed with six unknown parameters (d, k02, k21, α1, α2 and the lag time) as: […]
Test Readout: Vd at 12 h (L)
Respond with the bare value in L.

Please give the documented Vd at 12 h of O=C(O)Cc1ccccc1Nc1c(Cl)cccc1Cl [diclofenac]
7.75

====

# Assay Text: clinical
# Condition: human, in vivo, 100 mg
Test Readout: Vd at 4 h (L)
Respond with the bare value in L.

Please give the documented Vd at 4 h of O=C(O)Cc1ccccc1Nc1c(Cl)cccc1Cl
8.97
